Parameter 'readout' = Ki; parameter 'system' = SARS-CoV-2 M^pro (Severe acute respiratory syndrome coronavirus 2).
REPORTED METRIC: Ki

>  <STRUCTURE SMILES STRING>
CCCCCCCCCC[Se]c1c(O)cc(O)c2c(=O)c(O)c(-c3ccc(O)c(O)c3)oc12

>  <REPORTED METRIC>
Ki

>  <TEST VALUE>
> 100 µM

$$$$
>  <STRUCTURE SMILES STRING>
O=c1cc(-c2ccccc2)oc2cc(OCC[Se]c3ccccc3)cc(O)c12

>  <REPORTED METRIC>
Ki

>  <TEST VALUE>
> 100 µM

$$$$
>  <STRUCTURE SMILES STRING>
O=c1cc(-c2ccccc2)oc2c([Se]c3ccccc3)c(O)c([Se]c3ccccc3)c(O)c12

>  <REPORTED METRIC>
Ki

>  <TEST VALUE>
> 100 µM

$$$$
